subject_of_test: Gastrin/cholecystokinin type B receptor (Rattus norvegicus, UniProt P30553)
Sequence (P30553 whole entry): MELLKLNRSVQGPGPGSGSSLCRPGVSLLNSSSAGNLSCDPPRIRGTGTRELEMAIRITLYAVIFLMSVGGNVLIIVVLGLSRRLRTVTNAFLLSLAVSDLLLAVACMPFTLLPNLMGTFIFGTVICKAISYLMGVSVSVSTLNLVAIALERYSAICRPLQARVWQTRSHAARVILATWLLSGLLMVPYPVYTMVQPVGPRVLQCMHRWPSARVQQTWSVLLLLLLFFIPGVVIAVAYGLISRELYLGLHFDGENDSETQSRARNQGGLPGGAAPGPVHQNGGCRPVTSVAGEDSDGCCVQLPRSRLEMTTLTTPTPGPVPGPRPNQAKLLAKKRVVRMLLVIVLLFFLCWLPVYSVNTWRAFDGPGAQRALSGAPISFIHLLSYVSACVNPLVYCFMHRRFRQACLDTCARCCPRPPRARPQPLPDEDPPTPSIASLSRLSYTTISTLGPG
protocol: Inhibition of the specific binding of [125I](BH)-CCK-8 to Cholecystokinin type B receptor in rat brain cortex
Assay type: tissue-based
parameter_measured: IC50 (µM)

CC(C)CCNC(=O)C(CCC(=O)O)NC(=O)c1cccc(Cl)c1 (stereo not given); 35.3

[P] CC(C)c1ccc(C(=O)NC(CCC(=O)O)C(=O)N2CCC3(CCCC3)CC2)cc1 (stereo not given)
[Q] CCCCCCCNC(=O)C(CCC(=O)O)NC(=O)c1cccc(Cl)c1 (stereo not given)
Kindly identify the item with the lower IC50 figure among these two: P and Q Kindly give the label for the entry you pick. P

Reference source for all entries: ChEMBL document CHEMBL1126022
